- System: NCI-H226
- assay explanation: NCI tumour cell line growth inhibition, 48 h
Calls of active or inactive are those of the source. No stated cut-off is given here; in the data, active = GI50 up to about 1.1 µM and inactive = higher.
Assignment: determine reported GI50 for the given compounds.

Dear colleague, I am looking for the recorded GI50 of the following compound: Clc1ccc(C2ON=C(c3ccccc3)N2C23CC4CC(CC(C4)C2)C3)cc1Cl (stereo not given)
> 10 µM (inactive)

Dear colleague, I am looking for the recorded GI50 of the following compound: COc1ccc2[nH]c(C(O)(Cc3cccnc3)Cc3cccnc3)cc2c1
> 100 µM (inactive)

Dear colleague, I am looking for the recorded GI50 of the following compound: O=C1Cc2c([nH]c3ccccc23)C2(CC3CCCCN13)OCCO2 (stereo not given)
> 100 µM (inactive)

Dear colleague, I am looking for the recorded GI50 of the following compound: COc1ncnc2c1cnn2Cc1cn(CCCCO)nn1
> 100 µM (inactive)

Dear colleague, I am looking for the recorded GI50 of the following compound: CCCCS(=N)(=O)CC[C@H](N)C(=O)O (stereo not given in full)
> 5000 µM (inactive)

Dear colleague, I am looking for the recorded GI50 of the following compound: C=C1CN2CC(=C)CN(C1)CS(=O)(=O)N1CC(=C)CN(CC(=C)C1)S(=O)(=O)N1CC(=C)CN(CC(=C)C1)S(=O)(=O)C2
27.7 µM (inactive)

Dear colleague, I am looking for the recorded GI50 of the following compound: N#CC(C(=O)CCC(=O)Nc1ccc(Cl)c(Cl)c1)c1ccc(Cl)cc1 (stereo not given)
> 100 µM (inactive)

Dear colleague, I am looking for the recorded GI50 of the following compound: Cc1cc(O)c(-c2cc(O)c(C)cc2O)cc1O
18.7 µM (inactive)

Dear colleague, I am looking for the recorded GI50 of the following compound: CCOP(=O)(OCC)/C(=C\n1c(=S)[nH]c2cc(C)ccc21)C(=O)OC
> 100 µM (inactive)

Dear colleague, I am looking for the recorded GI50 of the following compound: CN1CCN(C2CC(=O)c3c(Cl)sc(Cl)c32)CC1 (stereo not given)
> 42.8 µM (inactive)

====

- Test system: SF-295
- assay explanation: NCI tumour cell line growth inhibition, 48 h
Calls of active or inactive are those of the source. Rule as the data show it: active = GI50 up to about 1.1 µM and inactive = higher.
Pick one: YES (active), NO (inactive)

// return assay outcome for O=C(OCC1CC(C2(O)CCCCC2)C(=O)O1)c1ccccc1 (stereo unspecified)
NO

// return assay outcome for Nc1ccc(-c2nc3cc(F)ccc3s2)cc1Cl
NO

// return assay outcome for COc1cc(OC)c(/C=N\Nc2nc3ccccc3c(=O)n2-c2ccccc2)c(OC)c1
NO

// return assay outcome for Clc1c2nc3ccccc3c-2[nH]c2ccccc12
YES

// return assay outcome for Cc1ccc(N2CCN(CCC(=O)O)CC2)cc1
NO

// return assay outcome for CCCCS(=N)(=O)CC[C@H](N)C(=O)O (stereo partly specified)
NO

// return assay outcome for CCOC(=O)C1=C(C)N(NC(N)=O)C2(N)N(NC(N)=O)C(C)=C(C(=O)OCC)C12C#N (stereo unspecified)
NO

// return assay outcome for Cc1ccc(Cc2n[nH]c(=O)n2Nc2ccccc2)cc1
NO

// return assay outcome for COc1ccc(/N=N/C(=NNC(=O)c2ccc(C)cc2)c2ccc(N(C)C)cc2)cc1
NO

// return assay outcome for CC(C)(C)c1cc(OCc2nnc3sc(S)nn23)c(Cl)cc1OCc1nnc2sc(S)nn12
NO

// return assay outcome for O=c1c(-c2ccccc2Cl)coc2cc(F)ccc12
NO

====

- System: U-251
- assay explanation: NCI tumour cell line growth inhibition, 48 h
The source made the active and inactive calls. No stated cut-off is given here; in the data, active = GI50 up to about 1.1 µM and inactive = higher.
Assignment: determine reported GI50 for the given compounds.

Dear colleague, I am looking for the recorded GI50 of the following compound: CN(CCNC(=O)c1n[nH]c2c1Cc1ccccc1-2)CCNC(=O)c1n[nH]c2c1Cc1ccccc1-2
19.3 µM (inactive)

Dear colleague, I am looking for the recorded GI50 of the following compound: CN(C)C(=S)/N=c1\ss/c(=N\C(=S)N(C)C)n1Cc1ccco1
> 100 µM (inactive)

Dear colleague, I am looking for the recorded GI50 of the following compound: CCOP(=O)(OCC)/C(C#N)=C/c1cccn1C(C)C
> 100 µM (inactive)

Dear colleague, I am looking for the recorded GI50 of the following compound: CC(=O)NC1=C(Nc2ccc(C)cc2)C(=O)c2ccccc2C1=O
29 µM (inactive)

Dear colleague, I am looking for the recorded GI50 of the following compound: CCCCS(=N)(=O)CC[C@H](N)C(=O)O (stereo not given in full) [BUTHIONINE SULFOXIME]
> 5000 µM (inactive)

Dear colleague, I am looking for the recorded GI50 of the following compound: O=C1C2CCC(C2)C12CC1(c3ccccc3)C(=O)c3ccccc3N1O2 (stereo not given)
> 100 µM (inactive)

Dear colleague, I am looking for the recorded GI50 of the following compound: CCOC(=O)NC(Nc1ccc(S(=O)(=O)Nc2nc(C)cc(C)n2)cc1)(C(=O)OCC)C(F)(F)F (stereo not given)
> 100 µM (inactive)

Dear colleague, I am looking for the recorded GI50 of the following compound: NCCCN(CCCCN(CCCN)Cc1ccccc1)Cc1ccccc1
42.3 µM (inactive)

Dear colleague, I am looking for the recorded GI50 of the following compound: [N-]=[N+]=Nc1ccc2c(c1)Sc1ccccc1N2CCCCCl
23.7 µM (inactive)

Dear colleague, I am looking for the recorded GI50 of the following compound: Cc1ccc2nc(Cl)c(/C=N/N3C(=O)/C(=C/Cc4ccco4)N=C3c3ccccc3)cc2c1
50.8 µM (inactive)

====

- Test system: A498
- assay explanation: NCI tumour cell line growth inhibition, 48 h
Counter-ions that a name gives are not always drawn. Active and inactive are the calls of the source. Rule as the data show it: active = GI50 up to about 1.1 µM and inactive = higher.
assay readout: GI50

Dear colleague, I am looking for the recorded GI50 of the following molecule: N#CC1=C(S)N(C2OC(CO)C(O)C(O)C2O)C(c2ccccc2)=CC1c1ccco1 (stereo unspecified)
71.6 µM (inactive)

Dear colleague, I am looking for the recorded GI50 of the following molecule: CCOC(=O)C12CN(C34CC5CC(CC(C5)C3)C4)CC(C(=O)OCC)(C1=O)C(c1ccccc1)OC2c1ccccc1 (stereo unspecified)
> 100 µM (inactive)

Dear colleague, I am looking for the recorded GI50 of the following molecule: NCCCN(CCCCN(CCCN)Cc1ccccc1)Cc1ccccc1
> 100 µM (inactive)

Dear colleague, I am looking for the recorded GI50 of the following molecule: COc1cc(OC)c2c(O)c3c(cc2c1)CC(C)(C)CC3=O
> 100 µM (inactive)

Dear colleague, I am looking for the recorded GI50 of the following molecule: O=C1CC(O)C=C1Nc1ccc(Cl)cc1 (stereo unspecified)
13.8 µM (inactive)

Dear colleague, I am looking for the recorded GI50 of the following molecule: COc1cc(C(c2cc3c(cc2O)OCO3)N2CCCCC2)cc(OC)c1OC (stereo unspecified)
19.5 µM (inactive)

Dear colleague, I am looking for the recorded GI50 of the following molecule: CNC(=O)O/N=C1\N(C)CN(c2ccccc2)C12CCN(CCCC(=O)c1ccc(F)cc1)CC2
40 µM (inactive)

Dear colleague, I am looking for the recorded GI50 of the following molecule: CCN1CCCC(NCc2c3ccccc3c(CNC3CCCN(CC)C3)c3ccccc23)C1 (stereo unspecified)
12.6 µM (inactive)

Dear colleague, I am looking for the recorded GI50 of the following molecule: CC1Cc2cc(O)c(O)cc2-c2cc(O)c(O)cc2CC1C (stereo unspecified)
25 µM (inactive)

Dear colleague, I am looking for the recorded GI50 of the following molecule: Nc1ccc(-c2nc3cc(F)ccc3s2)cc1Cl
3.07 µM (inactive)

Dear colleague, I am looking for the recorded GI50 of the following molecule: CC(C)(Sc1cc(C(C)(C)C)c(O)c(C(C)(C)C)c1)Sc1cc(C(C)(C)C)c(O)c(C(C)(C)C)c1
> 100 µM (inactive)

Dear colleague, I am looking for the recorded GI50 of the following molecule: Cc1ccc2c(ccc(/C=C\c3cc(C)c4cccnc4c3O)[n+]2C)c1
14.6 µM (inactive)

Dear colleague, I am looking for the recorded GI50 of the following molecule: O=NN(CCCl)C(=O)N[C@H]1CC[C@@H](O)CC1
> 100 µM (inactive)

Dear colleague, I am looking for the recorded GI50 of the following molecule: COc1cc2c(cc1OCCCC(=O)Nc1cc(C(=O)NCCCN(C)C)n(C)n1)N=CC1CCCN1C2=O (stereo unspecified)
2.82 µM (inactive)

Dear colleague, I am looking for the recorded GI50 of the following molecule: Cc1c2c(cc[n+]1C)O[B-](c1ccccc1)(c1ccccc1)O2
64 µM (inactive)

Dear colleague, I am looking for the recorded GI50 of the following molecule: CSc1ccccc1P(CCP(c1ccccc1SC)c1ccccc1SC)c1ccccc1SC
40.4 µM (inactive)

Dear colleague, I am looking for the recorded GI50 of the following molecule: Cc1ccc(/C=C/C(=O)c2cccc3ccccc23)cc1
13.9 µM (inactive)

Dear colleague, I am looking for the recorded GI50 of the following molecule: CCCCCCCCCCCCCCCCCCNc1ccn(C2OC(COP(=O)(O)OC3CC(n4cc(F)c(=O)[nH]c4=O)OC3COP(=O)(O)OCC3OC(n4ccc(N)nc4=O)C(O)C3O)C(O)C2O)c(=O)n1 (stereo unspecified)
20.8 µM (inactive)

Dear colleague, I am looking for the recorded GI50 of the following molecule: O=C(O)CC(NC(=O)/C(=C/c1ccccc1O)NC(=O)c1ccccc1)C(=O)O (stereo unspecified)
50.5 µM (inactive)

Dear colleague, I am looking for the recorded GI50 of the following molecule: COC(=O)CC(=O)OC
> 100 µM (inactive)

Dear colleague, I am looking for the recorded GI50 of the following molecule: COc1cc2c(c(OC)c1OC)C(=O)[C@H]1OC(=O)N[C@@H]21
> 100 µM (inactive)

Dear colleague, I am looking for the recorded GI50 of the following molecule: CCOP(=O)(OCC)/C(C#N)=C/c1cccn1C(C)C
> 100 µM (inactive)

Dear colleague, I am looking for the recorded GI50 of the following molecule: O=C1NC2C3CC(OCc4ccccc4)(OCc4ccccc4)C2OC3O1 (stereo unspecified)
> 50 µM (inactive)

Dear colleague, I am looking for the recorded GI50 of the following molecule: O=C(Nc1ccccc1-c1nn(C(=S)Nc2ccccc2)c(=S)n(C(=S)Nc2ccccc2)c1=O)C(F)(F)F
22.1 µM (inactive)

Dear colleague, I am looking for the recorded GI50 of the following molecule: COc1cc(OC)c(/C=N\Nc2nc3ccccc3c(=O)n2-c2ccccc2)c(OC)c1
11.8 µM (inactive)

Dear colleague, I am looking for the recorded GI50 of the following molecule: Cc1ccc(S(=O)(=O)NC(=N)N(C)N=O)cc1
71.4 µM (inactive)

Dear colleague, I am looking for the recorded GI50 of the following molecule: CCOC(=O)Cn1c(=O)c(C)cn(COCCO)c1=O
> 100 µM (inactive)

Dear colleague, I am looking for the recorded GI50 of the following molecule: N#CC1=C2Sc3ccccc3N2[C@H](c2ccccc2)[C@H]2COC(=O)[C@@H]12
54.8 µM (inactive)

Dear colleague, I am looking for the recorded GI50 of the following molecule: NC1=C(Cl)C(=O)c2ccccc2C1=O
19.9 µM (inactive)

Dear colleague, I am looking for the recorded GI50 of the following molecule: CC(=O)OC(C[C@H](C)[C@@H]1CC[C@]2(C)C3=CCC4C(C)(C)C(=O)CC[C@]4(C)C3CCC12C)C1OC1(C)C (stereo partly specified)
17.1 µM (inactive)

Dear colleague, I am looking for the recorded GI50 of the following molecule: O=C(Nc1cccc2ccccc12)c1ccccc1
> 100 µM (inactive)

Dear colleague, I am looking for the recorded GI50 of the following molecule: CCN(CC)CC[S+]([O-])c1c2cc(OC)ccc2nc2ccc(OC)cc12 (stereo unspecified)
16.3 µM (inactive)

Dear colleague, I am looking for the recorded GI50 of the following molecule: O=C(CC1(O)C(=O)Nc2ccccc21)c1ccncc1 (stereo unspecified)
> 100 µM (inactive)

Dear colleague, I am looking for the recorded GI50 of the following molecule: Cc1ccc(C2COc3cc(O)c(O)cc3C2)cc1 (stereo unspecified)
86.7 µM (inactive)

Dear colleague, I am looking for the recorded GI50 of the following molecule: N[C@@H](Cc1ccc(N(CCCl)CCCl)cc1)C(=O)O [MELPHALAN HYDROCHLORIDE]
99.1 µM (inactive)

Dear colleague, I am looking for the recorded GI50 of the following molecule: CCOC(=O)C(C)c1nc2cc(N3CCOCC3)c(F)cc2[nH]c1=O (stereo unspecified)
> 100 µM (inactive)

Dear colleague, I am looking for the recorded GI50 of the following molecule: c1ccc(CN2C3C4N(Cc5ccccc5)C2C2N(Cc5ccccc5)C(C(N2Cc2ccccc2)N4Cc2ccccc2)N3Cc2ccccc2)cc1
> 100 µM (inactive)

Dear colleague, I am looking for the recorded GI50 of the following molecule: CC/C=C/C(/C=C/C[C@]1(CC)C[C@H](CC)[C@H](CC(=O)O)OO1)CC (stereo partly specified)
14.3 µM (inactive)

Dear colleague, I am looking for the recorded GI50 of the following molecule: O=C(O)c1cc(NCc2cc(O)ccc2O)ccc1O
> 100 µM (inactive)

Dear colleague, I am looking for the recorded GI50 of the following molecule: CC(C)=C/C(CC(O)(C(F)(F)F)C(F)(F)F)=N\O
50.9 µM (inactive)

Dear colleague, I am looking for the recorded GI50 of the following molecule: C=C1CN2CC(=C)CN(C1)CS(=O)(=O)N1CC(=C)CN(CC(=C)C1)S(=O)(=O)N1CC(=C)CN(CC(=C)C1)S(=O)(=O)C2
46.5 µM (inactive)
